The measured values listed here are drawn from PubChem BioAssay (NCI).

tested on: SNB-19 CNS; experiment: NCI tumour cell line growth inhibition, 48 h; in the data active = GI50 below about 0.43 µM; inactive = the rest
The reply should name one outcome from active, inactive

COMPOUND	CLASS_ASSIGNMENT
COc1ccc2nc3cc([N+](=O)[O-])ccc3c(NCCO)c2c1	inactive
COc1ccc(C2=C(c3ccccc3)C(=O)N3CCCC3C2)cc1 (centres undefined)	inactive
C[C@@]12CC[C@@H](O)C[C@@H]1CC[C@H]1[C@H]2CC[C@@]2(C)[C@H](c3ccc(=O)oc3)CC[C@@]12O	active
CC(=O)Oc1ccc(C2OC(c3ccc4ccccc4c3OC(C)=O)=NN2C(C)=O)c(OC(C)=O)c1 (centres undefined)	inactive
CS(=O)(=O)Nc1cc(-c2ccc3ncc(C#N)c(Nc4ccc(F)c(Cl)c4)c3c2)cnc1Cl	active
COc1ccc(OC)c(C2=C(c3cn(C)c4ccccc34)C(=O)NC2=O)c1	inactive
Cn1c2c(c3ccccc31)CCN1C[C@@H]3CCCC[C@H]3C[C@@H]21	inactive
NC(=O)c1c[nH]c2ncnc(N)c12	inactive

[ask] Any idea what this test logged for COc1cc(/C=C2\CCC/C(=C\c3cc(CN4CCCC4)c(O)c(OC)c3)C2=O)cc(CN2CCCC2)c1O ?
[reply] inactive

---

test system: U251 CNS; test: NCI tumour cell line growth inhibition, 48 h
RESULT_TYPE: TGI

# example entries with known answers
COMPOUND_STRUCTURE_STRING	TGI
COc1ccc2c(O)c1-c1c(OC)ccc(c1O)SSc1ccc(OC)c(c1O)-c1c(OC)ccc(c1O)SS2	69 µM
CCOC(=O)C#Cc1cccc(C#CC(=O)OCC)c1	9.87 µM
CCCCCCCCCCCCCCCC(=O)NS(=O)(=O)OC[C@H]1O[C@@H](n2cnc3c(N)ncnc32)[C@H](O)[C@@H]1O	< 0.0277 µM
Nc1ncnc2c1ccn2CC#CCO	> 100 µM

Consider C=C1N(C)c2ccc(S(=O)(=O)c3ccc4c(c3)C(C)(C)C(=C)N4C)cc2C1(C)C . Its measured TGI is > 100 µM

---

Answer each item with its documented TGI.
system: COLO 205 colon; assay: NCI tumour cell line growth inhibition, 48 h

# example entries with known answers
COMPOUND	RESULT
CS(=O)(=O)N1CCC(Nc2ncc(C(=O)c3c(F)cccc3F)c(N)n2)CC1	> 25 µM
O=C1C(Cl)C(c2ccc(O)cc2)N1n1cnc2ccccc2c1=O (centres undefined)	58.4 µM
OC1C2CCCCN2C[C@@H](O)[C@H]1O (some centres undefined)	> 100 µM

State the recorded TGI for every item in the following list.
1. Cc1ccc(C(=O)NC2C(=O)NC(C(C)C)C(=O)N3CCCC3C(=O)N(C)CC(=O)N(C)C(C(C)C)C(=O)OC2C)c2c1Oc1c(c(C(=O)NC3C(=O)NC(C(C)C)C(=O)N4CCCC4C(=O)N(C)CC(=O)N(C)C(C(C)C)C(=O)OC3C)c3nc(-c4ccccc4)c(=O)oc3c1C)N2 (centres undefined)
2. C[C@@H](NC1CCCC[C@@H]1O)c1ccccc1 (some centres undefined)
3. COc1ccc2[nH]c(C(=O)OCc3ccc4c(Br)cc(Br)c(O)c4n3)cc2c1
4. CC(=Nc1ccc(Cl)cc1)c1ccncc1

[reply]
0.0295 µM
> 100 µM
1.92 µM
> 100 µM

State the recorded TGI for every item in the following list.
1. CN1C(=O)C(=Cc2ccc(Br)cc2)C(=O)N(C)C1=O
2. CCOC(=O)c1sc2nc(SC)nc3c2c1NC(=O)CN3c1ccc(F)cc1

[reply]
1. > 100 µM
2. > 100 µM
